Consider the following variants and their measured protein stability index readings.
B1: KRT13 (parent)
chain: TPGIDLTRVLAEMREQYEAMAERN

# Variants of: B1
# experiment.summary: protein stability index of a GFP-peptide fusion (GPS, HEK-293T) (PSI 1-6); higher = more stable;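 further: lentivirally expressed fusions sorted by FACS into six bins by GFP to DsRed ratio, PSI derived from sequencing read proportions per bin multiplied by bin number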
# experimental.conditions: c terminus: a fixed tail appended

| variant.id | protein stability index |
| --- | --- |
| R23D | 4.84 |
| E22V | 2.56 |
| L6F | 3.98 |
| G3P | 2.67 |
| I4R | 4.14 |
| R14A | 2.08 |
| M20L | 3.74 |
| L6I | 4.13 |
| R23Y | 3.61 |
| M13K | 4.24 |
| A21C | 4.29 |
| D5C | 2.73 |
| Q16R | 4.84 |
| A21G | 2.79 |
| E18H | 3.44 |
| N24K | 3.27 |
| L10G | 5.23 |
| R23G | 3.98 |
| A19W | 3.4 |
| P2K | 3.79 |
| L10F | 4.55 |
| E15I | 2.85 |
| R14T | 4.44 |
| D5E | 4.54 |
| A11M | 2.79 |
| A11H | 3.95 |
| E22C | 3.7 |
| E15Q | 3.28 |
| T1E | 4.3 |
| N24A | 3.56 |
| E18G | 3.88 |
| G3M | 2.38 |
| A21D | 4.91 |
| R8P | 3.61 |
| R14S | 3.74 |
| G3V | 2.11 |
| Y17M | 4.3 |
| A19P | 4.08 |
| R23T | 4.08 |
| T7D | 4.45 |
| E18M | 3.72 |
| Q16T | 3.39 |
| E18Y | 3.87 |
| R23F | 3.78 |
| M13R | 4.93 |

Values were extracted from the supplement of paper PMC10567573.
